// values below are reported EC50
tested on: PKC mediated IL-2 production; assay: IL-2 ELISA, human primary T cell, anti CD3+CD28+; assay type: cell-based; settings: Homo sapiens, T-cell, 24 h, human primary T cells stimulated with αCD3 and αCD28, 24 hours

Completed entries (count: 5):
{"columns": ["compound", "testTarget", "experimentalValue"],
 "data": [
  ["CC1(C)C[C@H](Nc2nc(Nc3cccc(-n4nnnc4SC(CN)CO)c3)ncc2F)C[C@@H]2CCCN21 (stereo partly shown) [Compound 264]", "PKC mediated IL-2 production", "1000 to 10000 nM"],
  ["Cn1nnn(-c2cc(Nc3ncc(F)c(N[C@@H]4C[C@@H]5CCCN5C(C)(C)C4)n3)ccc2N2CC(O)C2)c1=O [Compound 328]", "PKC mediated IL-2 production", "1000 to 10000 nM"],
  ["CC(C)N1CCN(c2ccc(Nc3ncc(F)c(N[C@@H]4C[C@@H]5CCCN5C(C)(C)C4)n3)cc2C#N)CC1 [Compound 138]", "PKC mediated IL-2 production", "< 100 nM"],
  ["Cn1nnn(-c2cc(Nc3ncc(F)c(NC4CCN5C(CCC5(C)C)C4)n3)c(F)cc2C2CC2)c1=O (racemic) [Compound 26]", "PKC mediated IL-2 production", "1000 to 10000 nM"],
  ["CC1(C)C[C@H](Nc2nc(Nc3ccc(OCC(O)CO)c(-n4cnnn4)c3)ncc2F)C[C@@H]2CCCN21 (stereo partly shown) [Compound 214]", "PKC mediated IL-2 production", "100 to 500 nM"]
]}

INPUT: Would you mind telling me what EC50 value was observed for CC(O)c1cc(F)c(Nc2ncc(F)c(N[C@@H]3C[C@@H]4CCCN4C(C)(C)C3)n2)cc1-n1nnn(C)c1=O (stereo partly shown) [Compound 94] ?
OUTPUT: 100 to 500 nM

INPUT: Dear colleague, I am looking for the recorded EC50 of the following compound: COc1cc(-n2nnnc2C)cc(Nc2ncc(F)c(N[C@@H]3C[C@@H]4CCCN4C(C)(C)C3)n2)c1F [Compound 242]
OUTPUT: < 100 nM

###

Tested on: PKC mediated IL-2 production
Experiment: IL-2 ELISA, human primary T cell, anti CD3+CD28+
Type: cell-based
Conditions: Homo sapiens, T-cell, 24 h, human primary T cells stimulated with αCD3 and αCD28, 24 hours
Protocol: Compounds 1-328 were tested in a whole cell functional assay for PKC mediated IL-2 production as follows. Human primary T cell isolation and culture: Human primary T cells were prepared as follows. Whole blood was obtained from a healthy volunteer, mixed 1:1 with PBS, layered on to Ficoll Hypaque (Amersham Pharmacia Biotech, Piscataway, N.J., Catalog #17-1440-03) in 2:1 blood/PBS:ficoll ratio and centrifuged for 30 minutes at 4° C. at 1750 rpm. […]
observedProperty: EC50

{"columns": ["molecule", "EC50"],
 "data": [
  ["CC1(C)C[C@H](Nc2nc(Nc3ccc(OCC4CCOCC4)c(C#N)c3)ncc2F)C[C@@H]2CCCN21 [Compound 178]", "100 to 500 nM"],
  ["CC1(C)C[C@H](Nc2nc(Nc3ccc(OCC4COC4)c(C#N)c3)ncc2F)C[C@@H]2CCCN21 [Compound 175]", "500 to 1000 nM"]
]}

INPUT: Look up EC50 with PKC mediated IL-2 production for this molecule: COc1cc(F)c(Nc2ncc(F)c(N[C@@H]3C[C@@H]4CCCN4C(C)(C)C3)n2)cc1-n1nnn(C)c1=O [Compound 22]
OUTPUT: 100 to 500 nM

INPUT: Lookup: EC50 / PKC mediated IL-2 production / COc1cc(Nc2ncc(F)c(N[C@@H]3C[C@@H]4CCCN4C(C)(C)C3)n2)cc(OC)c1OC [Compound 156]
OUTPUT: 1000 to 10000 nM

INPUT: Param readout= EC50; system= PKC mediated IL-2 production; entry= Cc1nnnn1-c1ccc(F)c(Nc2ncc(F)c(N[C@@H]3C[C@@H]4CCCN4C(C)(C)C3)n2)c1 [Compound 142] ; returns value.
OUTPUT: < 100 nM

INPUT: Item: CC1(C)CC[C@H]2C[C@@H](Nc3nc(Nc4ccc(OCCCO)c(OC(F)F)c4)ncc3F)CCN21 [Compound 307] Test system: PKC mediated IL-2 production Read-out: EC50 Value: ?
OUTPUT: 100 to 500 nM

###

system: PKC mediated IL-2 production; assay: IL-2 ELISA, human primary T cell, anti CD3+CD28+; type: cell-based; settings: Homo sapiens, T-cell, 24 h, human primary T cells stimulated with αCD3 and αCD28, 24 hours
pEC50: −log10 of the molar value.
Form field: pEC50 (one value per entry).

{"columns": ["compound", "pEC50"],
 "data": [
  ["COCCOCCOc1cc(F)c(Nc2ncc(F)c(N[C@@H]3C[C@@H]4CCCN4C(C)(C)C3)n2)cc1-n1nnn(C)c1=O", "5.00 to 6.00"],
  ["CC1(C)C[C@H](Nc2nc(Nc3cccc(-n4nnnc4SC(CO)CO)c3)ncc2F)C[C@@H]2CCCN21", "6.30 to 7.00"]
]}

INPUT: Which pEC50 reading was recorded for the compound CC1(C)C[C@H](Nc2nc(Nc3cccc(C#N)c3)ncc2Cl)C[C@@H]2CCCN21 ?
OUTPUT: 6.30 to 7.00

INPUT: Please look up its pEC50: CC1(C)C[C@H](Nc2nc(Nc3ccc(OCC(O)(C(F)(F)F)C(F)(F)F)c(C#N)c3)ncc2F)C[C@@H]2CCCN21
OUTPUT: 6.30 to 7.00

INPUT: Need pEC50 of Cn1nnn(-c2cc(Nc3ncc(F)c(N[C@@H]4C[C@@H]5CCCN5C(C)(C)C4)n3)c(F)cc2OC[C@H](O)CO)c1=O , thanks.
OUTPUT: 6.00 to 6.30

INPUT: Given Cn1nnn(-c2cc(Nc3ncc(F)c(NC4CC5CCCN5C(C)(C)C4)n3)ccc2OC2CCOCC2)c1=O (stereo not drawn) , state its recorded pEC50.
OUTPUT: 6.30 to 7.00

INPUT: Reported pEC50 for CC1(C)C[C@H](Nc2nc(Nc3ccc(OC4CCN(C5COC5)CC4)c(C(F)(F)F)c3)ncc2F)C[C@@H]2CCCN21 : what is it?
OUTPUT: 6.30 to 7.00

INPUT: Fill blank: measured pEC50 of the compound COC(=O)c1ccc(Nc2ncc(F)c(N[C@@H]3C[C@@H]4CCCN4C(C)(C)C3)n2)cc1C(F)(F)F is ____.
OUTPUT: 6.30 to 7.00

###

Readings of pEC50 for the listed molecules
system: PKC mediated IL-2 production; test: IL-2 ELISA, human primary T cell, anti CD3+CD28+; assay type: cell-based; conditions: Homo sapiens, T-cell, 24 h, human primary T cells stimulated with αCD3 and αCD28, 24 hours
pEC50: −log10 of the molar value.

Below, 2 molecules whose answers are already recorded.
{"columns": ["molecule", "pEC50"],
 "data": [
  ["CC1(C)C[C@H](Nc2nc(Nc3ccc(OCC4COCCO4)c(C#N)c3)ncc2F)C[C@@H]2CCCN21 (some centres unmarked)", "6.30 to 7.00"],
  ["CC1(C)C[C@H](Nc2nc(Nc3cc(-n4nnnc4C4CC4)ccc3F)ncc2F)C[C@@H]2CCCN21", "> 7.00"]
]}

INPUT: Enter reported pEC50 observed with PKC mediated IL-2 production for C[C@@H](O)COc1cc(F)c(Nc2ncc(C#N)c(N[C@@H]3C[C@@H]4CCCN4C(C)(C)C3)n2)cc1-n1nnn(C)c1=O
OUTPUT: 6.30 to 7.00

INPUT: Reported pEC50 for PKC mediated IL-2 production, given CC1(C)C[C@H](Nc2nc(Nc3ccc(OCCO)c(F)c3)ncc2F)C[C@@H]2CCCN21 ?
OUTPUT: 6.00 to 6.30

INPUT: For PKC mediated IL-2 production, provide pEC50 of CO[C@@H](C)COc1cc(F)c(Nc2ncc(F)c(N[C@@H]3C[C@@H]4CCCN4C(C)(C)C3)n2)cc1-n1nnn(C)c1=O please.
OUTPUT: 6.30 to 7.00

###

# key: entry, value: pEC50
system: PKC mediated IL-2 production; assay: IL-2 ELISA, human primary T cell, anti CD3+CD28+; type: cell-based; conditions: Homo sapiens, T-cell, 24 h, human primary T cells stimulated with αCD3 and αCD28, 24 hours
pEC50: −log10 of the molar value.

{"columns": ["compound", "pEC50"],
 "data": [
  ["CC1(C)C[C@H](Nc2nc(Nc3ccc(OCCO)c(-n4cnnn4)c3)ncc2F)C[C@@H]2CCCN21", "> 7.00"],
  ["CNC(=O)c1ccc(Nc2ncc(F)c(N[C@@H]3C[C@@H]4CCCN4C(C)(C)C3)n2)cc1Cl", "6.00 to 6.30"],
  ["CC1(C)CC[C@H]2C[C@@H](Nc3nc(Nc4ccc(OCCO)c(OC(F)F)c4)ncc3F)CCN21", "6.30 to 7.00"],
  ["COCCN1C(=O)C(C)(C)Oc2ccc(Nc3ncc(F)c(N[C@@H]4C[C@@H]5CCCN5C(C)(C)C4)n3)cc21", "5.00 to 6.00"]
]}

INPUT: Enter reported pEC50 observed with PKC mediated IL-2 production for CC1(C)C[C@H](Nc2nc(Nc3cccc(-n4nnn(CCO)c4=O)c3)ncc2F)C[C@@H]2CCCN21
OUTPUT: 6.30 to 7.00

INPUT: Item Cn1nnn(-c2cc(Nc3ncc(F)c(N[C@@H]4C[C@@H]5CCCN5C(C)(C)C4)n3)c(F)cc2OCC2(C)COC2)c1=O with PKC mediated IL-2 production - pEC50?
OUTPUT: 6.30 to 7.00

INPUT: Entry Cc1nnnn1-c1ccc(F)c(Nc2ncc(Cl)c(N[C@@H]3C[C@@H]4CCCN4C(C)(C)C3)n2)c1 , system PKC mediated IL-2 production: what pEC50 was measured?
OUTPUT: > 7.00

INPUT: # value lookup — system PKC mediated IL-2 production, readout pEC50, item Cn1nnn(-c2cc(Nc3ncc(C#N)c(N[C@@H]4C[C@@H]5CCCN5C(C)(C)C4)n3)c(F)cc2OC2COC2)c1=O
OUTPUT: 6.30 to 7.00

INPUT: Form entry - test system: PKC mediated IL-2 production; read-out: pEC50; compound: CC1(C)C[C@H](Nc2nc(Nc3ccc(OCCCO)c(-n4cnnn4)c3)ncc2F)C[C@@H]2CCCN21
OUTPUT: > 7.00

INPUT: Param readout= pEC50; system= PKC mediated IL-2 production; entry= CC1(C)C[C@H](Nc2nc(Nc3ccc(OC4CCNCC4O)c(Cl)c3)ncc2F)C[C@@H]2CCCN21 (stereo partly drawn) ; returns value.
OUTPUT: 6.30 to 7.00

INPUT: Please state recorded pEC50 (tested on PKC mediated IL-2 production) of CC1(C)C[C@H](Nc2nc(Nc3ccc(N4CCN(S(C)(=O)=O)CC4)c(C#N)c3)ncc2F)C[C@@H]2CCCN21
OUTPUT: 6.30 to 7.00

Reference source: patent US9682976B2
